Origin of measurements: the Deep4Chem optical property database

experiment: solvent given as SMILES; details: in C1CCOC1
Label Not satisfied if absorption maximum falls below 400 nm; label Satisfied in every other case.

Hi, just wondering whether Cn1c(=O)c(/N=N/c2cc(S(=O)(=O)O)ccc2S(=O)(=O)O)c(O)c2ccccc21 shows absorption maximum of 400 nm or higher.
Satisfied

Determine whether measured absorption maximum meets or exceeds 400 nm for N#CC1=C(c2ccc(-c3cccs3)s2)CCC1
Not satisfied

Kindly determine if absorption maximum recorded for COc1ccc(-c2nc3c(c4c2-c2ccccc2CC4)-c2ccccc2CC3)cc1 is above or exactly 400 nm.
Not satisfied

// inclusive: absorption maximum at least 400 nm? input: COc1ccc(C(=Cc2ccc(/C=C/c3ccc(C#N)cc3)cc2)c2ccc(OC)cc2)cc1
Not satisfied

absorption maximum >= 400 nm for CCCCC(CC)Cn1c2ccc(C(=C(C#N)C#N)c3ccccc3)cc2c2c(-c3ccc(Br)cc3)c3c(c(-c4ccc(Br)cc4)c21)c1cc(C(=C(C#N)C#N)c2ccccc2)ccc1n3CC(CC)CCCC (stereo not given) ?
Satisfied

# bool: absorption maximum of CCN1\C(=C/C=C/C=C/C2=[N+](CC)c3ccc4cc(Br)ccc4c3C2(C)C)C(C)(C)c2c1ccc1cc(Br)ccc21 >= 400 nm
Satisfied

Entry CCC1=C(C)C2=C(c3cc(C(=O)Cl)cc(C(=O)Cl)c3)c3c(C)c(CC)c(C)n3[B-](F)(F)[N+]2=C1C : is its absorption maximum no less than 400 nm?
Satisfied

Test whether the molecule O=C1CCCc2c1[nH]c1cc3c(cc21)OCO3 records absorption maximum of 400 nm or higher.
Not satisfied

Quick check: does CC(C)(C)c1ccc2oc(-c3ccc(-c4nc5cc(C(C)(C)C)ccc5o4)s3)nc2c1 have absorption maximum greater than or equal to 400 nm?
Not satisfied

Kindly determine if absorption maximum recorded for Cn1c(=O)c(/N=N/c2ccc(/N=N/c3ccc(S(=O)(=O)O)cc3)cc2)c(O)c2ccccc21 is above or exactly 400 nm.
Satisfied

Is absorption maximum for CC1=C(C(C)(C)C)C(C)=[N+]2C1=C(C)c1c(C)c(C(C)(C)C)c(C)n1[B-]2(F)F at or above 400 nm?
Satisfied

absorption maximum >= 400 nm for CCCCCCCCCCCCn1nnc(-c2ccc(C#Cc3ccc(C#Cc4ccc(-c5nnn(CCCCCCCCCCCC)n5)cc4)c4nc5c6ccccc6c6ccccc6c5nc34)cc2)n1 ?
Satisfied

Given the entry COC(=O)C1(C(=O)OC)Cc2c(C#Cc3ccccc3)c(-c3ccccc3)c3c(-c4ccccc4)c(-c4ccccc4)c(-c4ccccc4)c(-c4ccccc4)c3c2C1 , answer whether its absorption maximum meets or surpasses 400 nm.
Not satisfied

Would you say CCCCCCCCCCOc1ccc(C#Cc2ccc(C#Cc3ccc(OCCCCCCCCCC)c(OCCCCCCCCCC)c3)c3nc4c5ccccc5c5ccccc5c4nc23)cc1OCCCCCCCCCC shows absorption maximum at minimum 400 nm?
Satisfied

Say whether CN(C)c1ccc(/C=C/c2cnc3ccccc3n2)cc1 shows absorption maximum of 400 nm or more.
Satisfied

Confirm if absorption maximum reported for the molecule COc1cc2cc(OC)c(C#Cc3ccc([N+](=O)[O-])cc3)cc2cc1C#Cc1ccc([N+](=O)[O-])cc1 is 400 nm or above.
Not satisfied

Assess whether reported absorption maximum for CC(C)(C)c1ccc(-c2nc(-c3ccc(-n4c5ccccc5c5c6oc7ccccc7c6ccc54)cc3)nc(-c3ccc(C(C)(C)C)cc3)n2)cc1 sits at 400 nm or higher.
Not satisfied

Answer whether absorption maximum of CCN(CC)c1ccc(-c2nc3c(c4c2-c2ccc(C#N)cc2CC4)-c2ccc(C#N)cc2CC3)cc1 is greater than or equal to 400 nm.
Not satisfied

Threshold query (absorption maximum >= 400 nm) on Cc1ccccc1/C(C#N)=C/c1ccc(N(C)C)cc1
Not satisfied

Kindly determine if absorption maximum recorded for CCN(CC)c1ccc([N+]2=Cc3ccc4c5c(ccc4c3O[B-]2(c2ccccc2)c2ccccc2)C=[N+](c2ccc([N+](=O)[O-])cc2)[B-](c2ccccc2)(c2ccccc2)O5)cc1 is above or exactly 400 nm.
Satisfied

Is absorption maximum at least 400 nm? Consider FC(F)(F)C(F)(F)C(F)(F)C1=NC2=C(Oc3ccccc3)C=C3c4cc(Oc5ccccc5)c5nc(C(F)(F)C(F)(F)C(F)(F)F)nc6c(Oc7ccccc7)cc(c4c56)=C4C=C(Oc5ccccc5)C(=N1)C2C34 (stereo not given)
Satisfied
